Every entry's value here was drawn from patent US20060074243A1.

Target: Human recombinant MMP-2 (Homo sapiens, UniProt P08253)
Construct: made in house; host or cells: MMP-2-transfected p2AHT2 cells
Sequence (P08253 110-660): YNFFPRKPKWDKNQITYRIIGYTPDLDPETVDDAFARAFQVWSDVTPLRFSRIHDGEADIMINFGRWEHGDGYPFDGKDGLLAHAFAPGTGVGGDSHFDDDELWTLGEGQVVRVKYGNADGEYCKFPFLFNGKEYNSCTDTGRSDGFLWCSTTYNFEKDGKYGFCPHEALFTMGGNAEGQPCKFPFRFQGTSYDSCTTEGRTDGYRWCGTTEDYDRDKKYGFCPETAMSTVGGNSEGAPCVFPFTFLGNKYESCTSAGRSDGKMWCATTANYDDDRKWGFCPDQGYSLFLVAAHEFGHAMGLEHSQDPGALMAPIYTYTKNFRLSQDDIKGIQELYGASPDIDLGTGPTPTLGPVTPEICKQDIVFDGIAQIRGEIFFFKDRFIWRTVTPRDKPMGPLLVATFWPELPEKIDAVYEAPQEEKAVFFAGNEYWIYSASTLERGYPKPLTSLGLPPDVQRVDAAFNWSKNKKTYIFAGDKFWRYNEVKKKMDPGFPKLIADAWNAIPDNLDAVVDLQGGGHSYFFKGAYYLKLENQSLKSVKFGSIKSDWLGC
Test: In vitro MMP inhibition analysis (fluorogenic peptide substrate cleavage), Ki
Type: biochemical
Conditions: Table 2
The label Criterion met is reserved for Ki strictly under 600 pM; Criterion not met covers values equal to or above it.

Strictly below 600 pM: is that where Ki of O=C(NO)C1(S(=O)(=O)c2ccc(-c3cnc(-c4cccs4)cn3)cc2)CCOCC1 sits?
Criterion not met

Strictly below 600 pM: is that where Ki of O=C(NC1CCCC1)c1ccc(-c2ccc(S(=O)(=O)C3(C(=O)NO)CCOCC3)cc2)nc1 sits?
Criterion not met

Strictly below 600 pM: is that where Ki of COCCN1CCC(C(=O)NO)(S(=O)(=O)c2ccc(-c3cnc(OCC(F)(F)C(F)(F)F)cn3)cc2)CC1 sits?
Criterion met

Strictly below 600 pM: is that where Ki of O=C(NCC1CC1)c1ccc2cc(-c3ccc(S(=O)(=O)C4(C(=O)NO)CCOCC4)cc3)ccc2c1 sits?
Criterion met

Strictly below 600 pM: is that where Ki of CCCCCc1ccc(-c2ccc(S(=O)(=O)C3(C(=O)NO)CCOCC3)cc2)cc1 sits?
Criterion not met

Strictly below 600 pM: is that where Ki of O=C(NO)C1(S(=O)(=O)c2ccc(-c3nc4ccccc4o3)cc2)CCOCC1 sits?
Criterion not met

Strictly below 600 pM: is that where Ki of COCCC(C(=O)NO)S(=O)(=O)c1ccc(-c2ccc(CCC(F)(F)C(F)(F)F)cc2)cc1 (stereo not shown) sits?
Criterion not met

Strictly below 600 pM: is that where Ki of O=C(NO)C1(S(=O)(=O)c2ccc(-c3cnc(OCC(F)(F)C(F)(F)F)cn3)cc2)CCN(C2CC2)CC1 sits?
Criterion met

Strictly below 600 pM: is that where Ki of CCCCc1ccc(-c2ccc(S(=O)(=O)C3(C(=O)NO)CCN(CC)CC3)cc2)cn1 sits?
Criterion not met

Strictly below 600 pM: is that where Ki of O=C(NO)C1(S(=O)(=O)c2ccc(-c3ccc4c(c3)OCO4)cc2)CCOCC1 sits?
Criterion met

Strictly below 600 pM: is that where Ki of CCN1CCC(C(=O)NO)(S(=O)(=O)c2ccc(-c3ccc(OCCCCO)cc3)cc2)CC1 sits?
Criterion met

Strictly below 600 pM: is that where Ki of CC[C@H](C)NC(=O)c1ccc(-c2ccc(S(=O)(=O)C3(C(=O)NO)CCOCC3)cc2)nc1 sits?
Criterion not met

Strictly below 600 pM: is that where Ki of O=C(c1ccc2cc(-c3ccc(S(=O)(=O)C4(C(=O)NO)CCOCC4)cc3)ccc2c1)N1CCCCC1 sits?
Criterion not met

Strictly below 600 pM: is that where Ki of COc1ccc(C(=O)c2cnc(-c3ccc(S(=O)(=O)C4(C(=O)NO)CCOCC4)cc3)cn2)cc1 sits?
Criterion not met

Strictly below 600 pM: is that where Ki of CN(C)C(=O)c1ccc2cc(-c3ccc(S(=O)(=O)C4(C(=O)NO)CCOCC4)cc3)ccc2c1 sits?
Criterion not met

Strictly below 600 pM: is that where Ki of C#CCN(C)C(=O)c1ccc2cc(-c3ccc(S(=O)(=O)C4(C(=O)NO)CCOCC4)cc3)ccc2c1 sits?
Criterion not met

Strictly below 600 pM: is that where Ki of COc1ccc(-c2ccc(S(=O)(=O)C3(C(=O)NO)CCOCC3)cc2)cc1F sits?
Criterion met

Strictly below 600 pM: is that where Ki of CC(C)CCc1cnc(-c2ccc(S(=O)(=O)C3(C(=O)NO)CCOCC3)cc2)cn1 sits?
Criterion not met

Strictly below 600 pM: is that where Ki of CN1CCC(C(=O)NO)(S(=O)(=O)c2ccc(-c3ccc(OC(F)(F)C(F)F)cc3)cc2)CC1 sits?
Criterion met

Strictly below 600 pM: is that where Ki of COCCN1CCC(C(=O)NO)(S(=O)(=O)c2ccc(-c3ccc(OCCN4CCCC4)cc3)cc2)CC1 sits?
Criterion not met

Strictly below 600 pM: is that where Ki of CCN1CCC(C(=O)NO)(S(=O)(=O)c2ccc(-c3ccc(OCCOC)cc3)cc2)CC1 sits?
Criterion not met

Strictly below 600 pM: is that where Ki of CC(C)CCOc1ccc(-c2ccc(S(=O)(=O)C3(C(=O)NO)CCOCC3)cc2)cc1 sits?
Criterion met

Strictly below 600 pM: is that where Ki of CCCCOc1cnc(-c2ccc(S(=O)(=O)C3(C(=O)NO)CCOCC3)cc2)cn1 sits?
Criterion met

Strictly below 600 pM: is that where Ki of O=C(NO)C1(S(=O)(=O)c2ccc(-c3ncc(CCC(F)(F)C(F)(F)F)cn3)cc2)CCOCC1 sits?
Criterion not met

Strictly below 600 pM: is that where Ki of O=C(NO)C1(S(=O)(=O)c2ccc(-c3ccc(C(F)(F)F)cc3F)cc2)CCOCC1 sits?
Criterion not met

Strictly below 600 pM: is that where Ki of O=C(NO)C1(S(=O)(=O)c2ccc(-c3ccc(-c4ccccc4)cc3)cc2)CCN(C2CC2)CC1 sits?
Criterion met

Strictly below 600 pM: is that where Ki of CC(C)CCOc1ccc(-c2ccc(S(=O)(=O)C3(C(=O)NO)CCOCC3)cc2)cc1C(F)(F)F sits?
Criterion not met

Strictly below 600 pM: is that where Ki of COCCOC1CCC(C(=O)NO)(S(=O)(=O)c2ccc(-c3ccc(CCCC(F)(F)F)cn3)cc2)CC1 (stereo not shown) sits?
Criterion met

Strictly below 600 pM: is that where Ki of O=C(c1ccc2cc(-c3ccc(S(=O)(=O)C4(C(=O)NO)CCOCC4)cc3)ccc2c1)N1CCOCC1 sits?
Criterion not met

Strictly below 600 pM: is that where Ki of COCCOc1ccc(-c2ccc(S(=O)(=O)C3(C(=O)NO)CCN(CCOC)CC3)cc2)cc1 sits?
Criterion met
